System: PPARg:RXRa (NR concentration 180 nM, RXRa partner concentration 90 nM)
Test: PBM binding z-score (relative to random genomic background probes); higher = stronger binding; sequences stand for … in GC…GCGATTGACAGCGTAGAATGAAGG
Okay, here is how we bin by PBM binding z-score: lower band: < 0.8; central band: ≥ 0.8 and < 3; upper band: ≥ 3

> print(dat)
                     ordered.residues    class.name
1  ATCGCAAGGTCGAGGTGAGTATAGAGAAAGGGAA  central band
2  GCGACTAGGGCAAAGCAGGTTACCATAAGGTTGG  central band
3  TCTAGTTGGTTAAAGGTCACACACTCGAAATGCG    upper band

Bin this entry: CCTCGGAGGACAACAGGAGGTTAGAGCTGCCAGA lower band

What do you have for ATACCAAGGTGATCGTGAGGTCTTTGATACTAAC ? lower band

Also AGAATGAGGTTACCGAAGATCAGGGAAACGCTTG ? central band

# iterate: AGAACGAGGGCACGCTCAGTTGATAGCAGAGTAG central band

Cool, now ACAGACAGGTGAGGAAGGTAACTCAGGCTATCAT lower band

Now consider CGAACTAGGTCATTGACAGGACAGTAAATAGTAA . upper band

###

System: VDR:RXRa (NR concentration 270 nM, RXRa partner concentration 90 nM)
Assay: PBM binding z-score (relative to random genomic background probes); higher = stronger binding; sequences stand for … in GC…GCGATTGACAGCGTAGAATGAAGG
Recorded measurements of PBM binding z-score, one per entry

Solved cases (3 shown):
> print(dat)
                     ordered.residues  result
1  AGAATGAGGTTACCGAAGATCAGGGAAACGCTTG    1.53
2  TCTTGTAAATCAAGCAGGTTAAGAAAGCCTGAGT   0.479
3  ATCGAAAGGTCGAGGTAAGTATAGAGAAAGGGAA    2.36

Recorded PBM binding z-score for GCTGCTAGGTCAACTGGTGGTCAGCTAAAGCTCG , please? 1.64

Please answer likewise for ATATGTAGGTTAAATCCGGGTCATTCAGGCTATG 4.63

Subsequent entry: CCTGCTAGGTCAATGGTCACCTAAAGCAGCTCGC 1.45

Try this sequence next: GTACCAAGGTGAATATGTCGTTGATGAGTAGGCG -0.0532

Check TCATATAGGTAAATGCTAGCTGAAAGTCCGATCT too. 0.702

Same thing, different sequence: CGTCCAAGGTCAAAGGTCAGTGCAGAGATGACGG 6.57

Now consider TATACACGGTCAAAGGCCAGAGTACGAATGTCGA and answer again. 0.598

Field entry: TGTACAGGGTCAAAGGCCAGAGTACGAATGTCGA 4.59

###

System: LXRb homodimer (NR concentration 270 nM)
Assay: PBM binding z-score (relative to random genomic background probes); higher = stronger binding; sequences stand for … in GC…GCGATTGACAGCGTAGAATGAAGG
Assign TRUE whenever PBM binding z-score does not fall below -0.7; assign FALSE whenever it does.

Examples with answers:
> print(dat)
                      ordered.residues  class.name
 1  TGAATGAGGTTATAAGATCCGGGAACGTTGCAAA        TRUE
 2  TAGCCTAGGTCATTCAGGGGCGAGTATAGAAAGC        TRUE
 3  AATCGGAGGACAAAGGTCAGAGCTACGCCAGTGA        TRUE
 4  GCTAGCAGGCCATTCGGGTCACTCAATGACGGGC       FALSE
 5  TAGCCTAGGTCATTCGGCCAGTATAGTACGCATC        TRUE
 6  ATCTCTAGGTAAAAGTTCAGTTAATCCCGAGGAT        TRUE
 7  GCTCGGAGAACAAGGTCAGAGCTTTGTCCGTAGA       FALSE
 8  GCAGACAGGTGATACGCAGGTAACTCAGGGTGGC       FALSE
 9  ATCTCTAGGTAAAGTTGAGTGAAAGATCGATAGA        TRUE
10  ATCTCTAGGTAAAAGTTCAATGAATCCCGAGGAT        TRUE

Could you please find out whether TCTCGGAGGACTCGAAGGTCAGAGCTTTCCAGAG has PBM binding z-score that meets -0.7 or exceeds it? FALSE

Another sequence: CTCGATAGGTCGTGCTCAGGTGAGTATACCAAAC TRUE

Then what about the sequence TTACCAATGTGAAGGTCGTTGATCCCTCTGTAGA ? TRUE

Then this sequence: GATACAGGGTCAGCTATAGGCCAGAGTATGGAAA TRUE

###

Reported PBM binding z-score is given for each of the following sequences.
Tested on: RARb:RXRa (NR concentration 270 nM, RXRa partner concentration 90 nM)
Test: PBM binding z-score (relative to random genomic background probes); higher = stronger binding; sequences stand for … in GC…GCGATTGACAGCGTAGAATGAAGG

Consider the worked cases shown below.
> print(dat)
                     ordered.residues                           measured.target  result
1  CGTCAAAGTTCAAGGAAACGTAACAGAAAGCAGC  RARb:RXRa (NR concentration 270 nM, RXRa partner concentration 90 nM)       5
2  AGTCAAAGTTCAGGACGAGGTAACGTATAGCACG  RARb:RXRa (NR concentration 270 nM, RXRa partner concentration 90 nM)    4.34

Using the record for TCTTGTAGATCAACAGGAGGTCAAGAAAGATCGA , report its PBM binding z-score. 2.84

Entry to check: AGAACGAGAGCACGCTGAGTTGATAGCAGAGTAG -0.39

Same lookup for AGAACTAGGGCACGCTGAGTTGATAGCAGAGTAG , please. 1.58

Repeat for the following sequence: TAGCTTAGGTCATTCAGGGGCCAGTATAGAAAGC 3.88

Next: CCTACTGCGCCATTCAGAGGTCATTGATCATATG 3.05

###

System: LXRa homodimer (NR concentration 270 nM)
Assay: PBM binding z-score (relative to random genomic background probes); higher = stronger binding; sequences stand for … in GC…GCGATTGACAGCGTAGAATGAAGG
Outcome label depends on PBM binding z-score relative to 0.3: at/above gives Condition met, below gives Condition not met.

> print(dat)
                     ordered.residues         class.name
1  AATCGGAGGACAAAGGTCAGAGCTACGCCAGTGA      Condition met
2  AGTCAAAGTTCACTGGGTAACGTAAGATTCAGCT      Condition met
3  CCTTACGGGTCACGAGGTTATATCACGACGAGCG      Condition met
4  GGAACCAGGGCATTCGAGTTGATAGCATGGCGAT  Condition not met
5  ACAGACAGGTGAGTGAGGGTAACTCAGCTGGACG  Condition not met
6  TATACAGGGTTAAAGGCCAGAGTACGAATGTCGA      Condition met

Record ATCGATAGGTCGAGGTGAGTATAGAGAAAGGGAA ; criterion: PBM binding z-score no lower than 0.3. Met? Condition not met

Next record, please: TCAAATAGGTAAACAGGTGAAAGTCCGTAAGTTA Condition not met

# repeat for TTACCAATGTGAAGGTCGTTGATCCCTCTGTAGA Condition met

Another: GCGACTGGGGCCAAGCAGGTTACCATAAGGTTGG Condition not met

Item: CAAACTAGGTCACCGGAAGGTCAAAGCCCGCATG Condition met

How about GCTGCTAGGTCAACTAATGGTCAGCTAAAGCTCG ? Condition not met

###

Tested on: VDR:RXRa (NR concentration 270 nM, RXRa partner concentration 90 nM)
Test: PBM binding z-score (relative to random genomic background probes); higher = stronger binding; sequences stand for … in GC…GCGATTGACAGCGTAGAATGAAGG
Each entry gets false (0) if its PBM binding z-score stays under 1, and true (1) if its PBM binding z-score is 1 or above.

Observe how each entry below is paired with its result.
> print(dat)
                     ordered.residues  class.name
1  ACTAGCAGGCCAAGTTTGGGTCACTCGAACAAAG   false (0)
2  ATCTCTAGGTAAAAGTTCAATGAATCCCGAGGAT    true (1)
3  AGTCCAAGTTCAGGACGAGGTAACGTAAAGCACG    true (1)

# ---- query sequence ----
Is PBM binding z-score at least 1? Consider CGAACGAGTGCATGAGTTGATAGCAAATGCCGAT true (1)

###

Form field: PBM binding z-score (one value per entry).
Test system: RARg homodimer (NR concentration 270 nM)
Assay: PBM binding z-score (relative to random genomic background probes); higher = stronger binding; sequences stand for … in GC…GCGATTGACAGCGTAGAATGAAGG
When you answer, write just the number.

These recorded examples may help you get a feel for the data.
> print(dat)
                      ordered.residues       assay.endpoint  numeric.value
 1  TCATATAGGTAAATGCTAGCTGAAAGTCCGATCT  PBM binding z-score          0.178
 2  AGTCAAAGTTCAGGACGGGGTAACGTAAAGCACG  PBM binding z-score           4.51
 3  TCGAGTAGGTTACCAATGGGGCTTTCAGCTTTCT  PBM binding z-score           0.23
 4  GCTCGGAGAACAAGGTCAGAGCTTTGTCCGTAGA  PBM binding z-score           2.24
 5  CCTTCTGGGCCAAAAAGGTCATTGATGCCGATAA  PBM binding z-score           4.26
 6  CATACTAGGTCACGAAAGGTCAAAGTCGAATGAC  PBM binding z-score           8.68
 7  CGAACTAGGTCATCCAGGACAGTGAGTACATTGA  PBM binding z-score           5.08
 8  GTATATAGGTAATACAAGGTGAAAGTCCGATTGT  PBM binding z-score          0.697
 9  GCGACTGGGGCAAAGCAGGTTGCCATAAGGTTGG  PBM binding z-score          0.101
10  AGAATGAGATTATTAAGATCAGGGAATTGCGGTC  PBM binding z-score         0.0706

What measured PBM binding z-score goes with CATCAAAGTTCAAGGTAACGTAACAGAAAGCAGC ? 5.74

What would you report for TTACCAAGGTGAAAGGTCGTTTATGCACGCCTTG ? 1.62
